Target: T1, huNav1.7α + β1-β2-β3 (human, UniProt Q15858 1-1988; A5A6L6 19-218; O60939 30-215; Q2KI11 23-215)
T1 construct: also called huNav1.7-beta1-beta2-beta3; huNav1.7-β1-β2-β3
Assay: binding FACS, CHO FlpIn
readout-type: pEC50
Expect pEC50 as a plain number equal to -log10 of the molar concentration.

Known results for binders:
For F010302362 (VHH) VHH: EVQLVESGGGVVQPGGSLRLSCAASHRAFIRDVFTGWYRQAPGKQRELVARIYESGNTQYADSVKGRFTISRDNAKKTVYLQMNSLRPEDTALYYCLFSGTISTGREYRSGDYWGQGTLVTVSS the binder record lists pEC50 as 8.27

F010301937 (VHH, also called F0103464B09(L11V, S82aN, K83R, V89L)) VHH: EVQLVESGGGVVQPGGSLRLSCATTSRAFIRDVFTGWYRRVPGKERELVARIYNGGNTNYADFAKGRFSISRDNAKKMVTLRMNNLRPEDTGLYYCLFSGTINTGREYRSGDYWGQGTLVTVSS has a reported pEC50 of 8.37

Entry F010302342 (VHH) VHH: EVQLVESGGGVVQPGGSLRLSCAASSRQFIRDVFTGWYRQAPGKQRELVARIYNEGNTQYADSAKGRFTISRDNAKKTVYLQMNSLRPEDTALYYCLFSGTISTGREYRSGDYWGQGTLVTVSS , pEC50 reported as 8.40

Next:
Reported pEC50 of F010302339 (VHH) VHH: EVQLVESGGGVVQPGGSLRLSCAASHRAFIRDVFTGWYRRAPGKQRELVARIYEGGNTQYADSAKGRFTISRDNAKKTVYLQMNSLRPEDTALYYCLFSGTISTGREYRSGDYWGQGTLVTVSS : 8.37

Please fill in: pEC50 reported for F010302343 (VHH) VHH: EVQLVESGGGVVQPGGSLRLSCAASSRQFIRDVFTGWYRQAPGKQRELVARIYESGNTQYADSAKGRFTISRDNAKKTVYLQMNSLRPEDTALYYCLFSGTISTGREYRSGDYWGQGTLVTVSS = 8.19

Form: binder = F010302354 (VHH) VHH: EVQLVESGGGVVQPGGSLRLSCAASHRAFIRDVFTGWYRRAPGKQRELVARIYESGNTQYADSVKGRFTISRDNAKKTVYLQMNSLRPEDTALYYCLFSGTISTGREYRSGDYWGQGTLVTVSS ; pEC50 = 8.38

Entry F010301935 (VHH, also called F0103464B09(L11V, T79Y, K83R, V89L)) VHH: EVQLVESGGGVVQPGGSLRLSCATTSRAFIRDVFTGWYRRVPGKERELVARIYNGGNTNYADFAKGRFSISRDNAKKMVYLRMSNLRPEDTGLYYCLFSGTINTGREYRSGDYWGQGTLVTVSS ; pEC50 = 8.42

Value of measured pEC50 for the entry F010302333 (VHH) VHH: EVQLVESGGGVVQPGGSLRLSCAASSRQFIRDVFTGWYRRAPGKQRELVARIYNEGNTNYADSAKGRFTISRDNAKKTVYLQMNSLRPEDTALYYCLFSGTISTGREYRSGDYWGQGTLVTVSS : 8.39
